# System: NCI-H322M lung
# assay name: NCI-60 one-dose screen, 48 h
# assay context: 10 µM unless noted
About 83,000 compounds went through this panel and 20% of them were active in at least one assay; those are over-represented in the sample as a whole. Calls of active or inactive are those of the source. Rule for the calls: active = growth percent below 10; inactive = the rest.
Choose one outcome from this list and give only that: True for active, False for inactive

Recorded results for 5 compounds are shown here.
molecule	assigned class
O=C(NCc1cccnc1)/C(=C\c1ccc(Br)cc1)S(=O)(=O)c1ccccc1	True
CN(C)C(=O)c1cc2cnc(Nc3ccc(-c4csc5c(=S)cc(N6CCOCC6)oc45)cc3)nc2n1C1CCCC1	False
CCN(CC)CCCN1C(=O)c2c(c(C)c3c(oc4cc(OC)ccc43)c2C)C1=O	False
CC(=O)/C=C/c1ccc(OCc2ccc(C(C)(C)C)cc2)cc1	False
Oc1ccccc1C=Nc1ccc(N2CCN(c3ccccc3)CC2)cc1	False

// next entry
Recorded test outcome, item O=C1C(Nc2ccc(Cl)cc2)=C(I)C(=O)c2ncccc21
False
